Values compiled from paper PMC12439760.

Molecular target: hCB1 receptor (Homo sapiens, UniProt P21554)
Sequence (P21554 whole entry): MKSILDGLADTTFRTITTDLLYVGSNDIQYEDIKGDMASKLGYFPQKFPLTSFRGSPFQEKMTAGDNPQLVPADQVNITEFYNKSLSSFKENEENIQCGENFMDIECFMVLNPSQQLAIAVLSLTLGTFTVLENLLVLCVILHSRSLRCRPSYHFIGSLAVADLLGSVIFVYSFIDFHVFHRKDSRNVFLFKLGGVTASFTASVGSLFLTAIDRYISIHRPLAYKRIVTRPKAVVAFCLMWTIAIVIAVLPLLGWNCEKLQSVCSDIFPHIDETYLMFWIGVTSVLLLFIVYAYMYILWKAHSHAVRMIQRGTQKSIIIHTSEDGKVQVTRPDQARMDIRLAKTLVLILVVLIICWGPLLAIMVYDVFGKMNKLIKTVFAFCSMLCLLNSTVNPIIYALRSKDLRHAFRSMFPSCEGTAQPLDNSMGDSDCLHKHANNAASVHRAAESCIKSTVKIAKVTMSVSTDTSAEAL
Assay: hCB1 Gαq16-coupled calcium mobilization assay in CHO-K1 cells
Conditions: hCB1 Ca EC50, CHO cells expressing hCB1 and Gαq16, calcium mobilization
PARAMETER_MEASURED: EC50 (nM)
Report only the number, with the unit nM understood.

// solved cases for EC50 follow
In [3]: df
Out[3]:
                           smiles_structure  unit_abbreviation  measured
0  O=C(NCC1CCCCC1)c1nn(Cc2ccc(F)cc2)c2ccccc12                 nM        17
1  NC(=O)C1(NC(=O)c2nn(Cc3ccc(F)cc3)c3ccccc23)CCCC1                 nM      1240
2  NC(=O)[C@@H](NC(=O)c1nn(Cc2ccc(F)cc2)c2ccccc12)c1ccccc1                 nM       178

Ask: EC50 of "CC(C)(NC(=O)c1nn(CCC2CCCC2)c2ccccc12)c1cccc(C(N)=O)c1" on hCB1 receptor (Homo sapiens, UniProt P21554)?
Result: 383
